All values here come from the supplement of paper PMC10307832.

Listed next: entries and their corresponding relative viability.
System: NCI-H1993
experimentNotes: relative viability (nuclei count vs DMSO), 5 days (fraction); higher = more cells survive
conditionSummary: first compound 0.001 µM
Please give only the number in your answer, with no unit.

Examples from the recorded data:
{"columns": ["compound", "relative viability"],
 "data": [
  ["Cc1cn(-c2cc(NC(=O)c3ccc(C)c(Nc4nccc(-c5cccnc5)n4)c3)cc(C(F)(F)F)c2)cn1 [Nilotinib] + Cc1nc(Nc2ncc(C(=O)Nc3c(C)cccc3Cl)s2)cc(N2CCN(CCO)CC2)n1 [Dasatinib] (partner 0.075 µM)", 0.625],
  ["Cc1cn(-c2cc(NC(=O)c3ccc(C)c(Nc4nccc(-c5cccnc5)n4)c3)cc(C(F)(F)F)c2)cn1 [Nilotinib] + O=C(CCCCCCC(=O)Nc1ccccc1)NO [Vorinostat] (partner 1 µM)", 0.6]
]}

Fill in reported relative viability for this entry: Cc1cn(-c2cc(NC(=O)c3ccc(C)c(Nc4nccc(-c5cccnc5)n4)c3)cc(C(F)(F)F)c2)cn1 [Nilotinib] + NC(=O)Nc1cc(-c2cccc(F)c2)sc1C(=O)N[C@H]1CCCNC1 [AZD7762] (partner 0.2 µM)
0.875

====

Recorded relative viability by entry
Test system: NCI-H1651
experimentNotes: relative viability (nuclei count vs DMSO), 5 days (fraction); higher = more cells survive
conditionSummary: first compound 2.53 µM
Lab note: record the figure alone, no unit after it.

Some solved cases for reference:
{"columns": ["molecule", "propertyLabel", "testResult"],
 "data": [
  ["Nc1cccc2c1CN(C1CCC(=O)NC1=O)C2=O (stereo unspecified) [Lenalidomide] + CC1(C)CCC(c2ccc(Cl)cc2)=C(CN2CCN(c3ccc(C(=O)NS(=O)(=O)c4ccc(N[C@H](CCN5CCOCC5)CSc5ccccc5)c(S(=O)(=O)C(F)(F)F)c4)cc3)CC2)C1 [Navitoclax] (partner 0.5 µM)", "relative viability", 1.25],
  ["Nc1cccc2c1CN(C1CCC(=O)NC1=O)C2=O (stereo unspecified) [Lenalidomide] + CS(=O)(=O)CCNCc1ccc(-c2ccc3ncnc(Nc4ccc(OCc5cccc(F)c5)c(Cl)c4)c3c2)o1 [Lapatinib] (partner 2 µM)", "relative viability", 1.25],
  ["Nc1cccc2c1CN(C1CCC(=O)NC1=O)C2=O (stereo unspecified) [Lenalidomide] + O=C(CCCCCCC(=O)Nc1ccccc1)NO [Vorinostat] (partner 1 µM)", "relative viability", 0.589],
  ["Nc1cccc2c1CN(C1CCC(=O)NC1=O)C2=O (stereo unspecified) [Lenalidomide] + O=C(c1cc(Cc2n[nH]c(=O)c3ccccc23)ccc1F)N1CCN(C(=O)C2CC2)CC1 [Olaparib] (partner 8 µM)", "relative viability", 0.219],
  ["Nc1cccc2c1CN(C1CCC(=O)NC1=O)C2=O (stereo unspecified) [Lenalidomide] + C[C@@H](Oc1cc(-c2cnn(C3CCNCC3)c2)cnc1N)c1c(Cl)ccc(F)c1Cl [Crizotinib] (partner 1 µM)", "relative viability", 0.865]
]}

Consider the molecule Nc1cccc2c1CN(C1CCC(=O)NC1=O)C2=O (stereo unspecified) [Lenalidomide] + NC(=O)Nc1cc(-c2cccc(F)c2)sc1C(=O)N[C@H]1CCCNC1 [AZD7762] (partner 0.2 µM) and give its recorded relative viability.
0.568

====

System: NCI-H650
experimentNotes: relative viability (nuclei count vs DMSO), 5 days (fraction); higher = more cells survive
conditionSummary: first compound 0.03162 µM
propertyLabel: relative viability
# print the numeric value only

{"columns": ["compound", "systemName", "relative viability"],
 "data": [
  ["Cc1cn(-c2cc(NC(=O)c3ccc(C)c(Nc4nccc(-c5cccnc5)n4)c3)cc(C(F)(F)F)c2)cn1 [Nilotinib] + COc1cc2c(Oc3ccc(NC(=O)C4(C(=O)Nc5ccc(F)cc5)CC4)cc3F)ccnc2cc1OCCCN1CCOCC1 [Foretinib] (partner 0.25 µM)", "NCI-H650", 0.986]
]}

Provide one value: measured relative viability of Cc1cn(-c2cc(NC(=O)c3ccc(C)c(Nc4nccc(-c5cccnc5)n4)c3)cc(C(F)(F)F)c2)cn1 [Nilotinib] + Nc1ncn([C@H]2C[C@H](O)[C@@H](CO)O2)c(=O)n1 [Decitabine] (partner 2 µM)
0.315

Indicate its recorded relative viability; the compound in question is Cc1cn(-c2cc(NC(=O)c3ccc(C)c(Nc4nccc(-c5cccnc5)n4)c3)cc(C(F)(F)F)c2)cn1 [Nilotinib] + NC(=O)Nc1cc(-c2cccc(F)c2)sc1C(=O)N[C@H]1CCCNC1 [AZD7762] (partner 0.2 µM)
0.918

For the compound Cc1cn(-c2cc(NC(=O)c3ccc(C)c(Nc4nccc(-c5cccnc5)n4)c3)cc(C(F)(F)F)c2)cn1 [Nilotinib] + Cc1nc(Nc2ncc(C(=O)Nc3c(C)cccc3Cl)s2)cc(N2CCN(CCO)CC2)n1 [Dasatinib] (partner 0.075 µM) , report relative viability.
0.408

Item Cc1cn(-c2cc(NC(=O)c3ccc(C)c(Nc4nccc(-c5cccnc5)n4)c3)cc(C(F)(F)F)c2)cn1 [Nilotinib] + Cc1cc(Nc2cc(N3CCN(C)CC3)nc(Sc3ccc(NC(=O)C4CC4)cc3)n2)n[nH]1 [Tozasertib] (partner 0.1 µM) : provide relative viability
0.672

====

System: NCI-H2087
experimentNotes: relative viability (nuclei count vs DMSO), 5 days (fraction); higher = more cells survive
conditionSummary: first compound 0.003162 µM
This section presents compounds with their documented relative viability values.
I'd appreciate a reply containing only the number, no unit.

Solved cases below.
{"columns": ["compound", "testResult"],
 "data": [
  ["Cc1cn(-c2cc(NC(=O)c3ccc(C)c(Nc4nccc(-c5cccnc5)n4)c3)cc(C(F)(F)F)c2)cn1 [Nilotinib] + C[C@@H](Oc1cc(-c2cnn(C3CCNCC3)c2)cnc1N)c1c(Cl)ccc(F)c1Cl [Crizotinib] (partner 1 µM)", 0.806],
  ["Cc1cn(-c2cc(NC(=O)c3ccc(C)c(Nc4nccc(-c5cccnc5)n4)c3)cc(C(F)(F)F)c2)cn1 [Nilotinib] + COc1cccc2cc(-c3nc([C@H]4CC[C@H](C(=O)O)CC4)n4ncnc(N)c34)[nH]c12 [OSI-027] (partner 0.5 µM)", 0.557],
  ["Cc1cn(-c2cc(NC(=O)c3ccc(C)c(Nc4nccc(-c5cccnc5)n4)c3)cc(C(F)(F)F)c2)cn1 [Nilotinib] + CC1(C)CCC(c2ccc(Cl)cc2)=C(CN2CCN(c3ccc(C(=O)NS(=O)(=O)c4ccc(N[C@H](CCN5CCOCC5)CSc5ccccc5)c(S(=O)(=O)C(F)(F)F)c4)cc3)CC2)C1 [Navitoclax] (partner 0.5 µM)", 0.86],
  ["Cc1cn(-c2cc(NC(=O)c3ccc(C)c(Nc4nccc(-c5cccnc5)n4)c3)cc(C(F)(F)F)c2)cn1 [Nilotinib] + Nc1ncn([C@H]2C[C@H](O)[C@@H](CO)O2)c(=O)n1 [Decitabine] (partner 2 µM)", 0.244]
]}

Turning to the following compound.
Kindly indicate its recorded relative viability. Item: Cc1cn(-c2cc(NC(=O)c3ccc(C)c(Nc4nccc(-c5cccnc5)n4)c3)cc(C(F)(F)F)c2)cn1 [Nilotinib] + CC(C)C[C@H](NC(=O)[C@H](Cc1ccccc1)NC(=O)c1cnccn1)B(O)O [Bortezomib] (partner 0.002 µM)
1.03

====

System: BEN
experimentNotes: relative viability (nuclei count vs DMSO), 5 days (fraction); higher = more cells survive
conditionSummary: first compound 0.2 µM
Below, each of the molecules is paired with its reported relative viability value.
Respond using a number only.

{"columns": ["molecule", "systemName", "propertyLabel", "testResult"],
 "data": [
  ["CCNC(=O)c1noc(-c2cc(C(C)C)c(O)cc2O)c1-c1ccc(CN2CCOCC2)cc1 [Luminespib] + Nc1nc2[nH]cc(CCc3ccc(C(=O)N[C@@H](CCC(=O)O)C(=O)O)cc3)c2c(=O)[nH]1 [Pemetrexed] (partner 0.2 µM)", "BEN", "relative viability", 0.252]
]}

Kindly review the next molecule as well.
Could you please provide reported relative viability for CCNC(=O)c1noc(-c2cc(C(C)C)c(O)cc2O)c1-c1ccc(CN2CCOCC2)cc1 [Luminespib] + CC(C)C[C@H](NC(=O)[C@H](Cc1ccccc1)NC(=O)c1cnccn1)B(O)O [Bortezomib] (partner 0.002 µM) ? Thanks!
0.239

====

System: EKVX
experimentNotes: relative viability (nuclei count vs DMSO), 5 days (fraction); higher = more cells survive
conditionSummary: first compound 0.01 µM
Each record is given Met if its reported relative viability is strictly below 0.7. Records at or above 0.7 are given Not met.

{"columns": ["compound", "systemName", "assignedLabel"],
 "data": [
  ["Cc1cn(-c2cc(NC(=O)c3ccc(C)c(Nc4nccc(-c5cccnc5)n4)c3)cc(C(F)(F)F)c2)cn1 [Nilotinib] + CS(=O)(=O)N1CCN(Cc2cc3nc(-c4cccc5[nH]ncc45)nc(N4CCOCC4)c3s2)CC1 [Pictilisib] (partner 1 µM)", "EKVX", "Met"],
  ["Cc1cn(-c2cc(NC(=O)c3ccc(C)c(Nc4nccc(-c5cccnc5)n4)c3)cc(C(F)(F)F)c2)cn1 [Nilotinib] + O=C(c1cc(Cc2n[nH]c(=O)c3ccccc23)ccc1F)N1CCN(C(=O)C2CC2)CC1 [Olaparib] (partner 8 µM)", "EKVX", "Not met"],
  ["Cc1cn(-c2cc(NC(=O)c3ccc(C)c(Nc4nccc(-c5cccnc5)n4)c3)cc(C(F)(F)F)c2)cn1 [Nilotinib] + Cc1nc(NC(=O)N2CCC[C@H]2C(N)=O)sc1-c1ccnc(C(C)(C)C(F)(F)F)c1 [Alpelisib] (partner 2 µM)", "EKVX", "Not met"],
  ["Cc1cn(-c2cc(NC(=O)c3ccc(C)c(Nc4nccc(-c5cccnc5)n4)c3)cc(C(F)(F)F)c2)cn1 [Nilotinib] + NC(=O)Nc1cc(-c2cccc(F)c2)sc1C(=O)N[C@H]1CCCNC1 [AZD7762] (partner 0.2 µM)", "EKVX", "Not met"]
]}

Now let's try a different one.
Determine whether this compound shows relative viability lower than 0.7 (ties excluded): Cc1cn(-c2cc(NC(=O)c3ccc(C)c(Nc4nccc(-c5cccnc5)n4)c3)cc(C(F)(F)F)c2)cn1 [Nilotinib] + COc1cccc2cc(-c3nc([C@H]4CC[C@H](C(=O)O)CC4)n4ncnc(N)c34)[nH]c12 [OSI-027] (partner 0.5 µM)
Not met
